measurement target: Nuclear receptor ROR-gamma (Homo sapiens)
Sequence (P51449 whole entry, the tested form may be a part): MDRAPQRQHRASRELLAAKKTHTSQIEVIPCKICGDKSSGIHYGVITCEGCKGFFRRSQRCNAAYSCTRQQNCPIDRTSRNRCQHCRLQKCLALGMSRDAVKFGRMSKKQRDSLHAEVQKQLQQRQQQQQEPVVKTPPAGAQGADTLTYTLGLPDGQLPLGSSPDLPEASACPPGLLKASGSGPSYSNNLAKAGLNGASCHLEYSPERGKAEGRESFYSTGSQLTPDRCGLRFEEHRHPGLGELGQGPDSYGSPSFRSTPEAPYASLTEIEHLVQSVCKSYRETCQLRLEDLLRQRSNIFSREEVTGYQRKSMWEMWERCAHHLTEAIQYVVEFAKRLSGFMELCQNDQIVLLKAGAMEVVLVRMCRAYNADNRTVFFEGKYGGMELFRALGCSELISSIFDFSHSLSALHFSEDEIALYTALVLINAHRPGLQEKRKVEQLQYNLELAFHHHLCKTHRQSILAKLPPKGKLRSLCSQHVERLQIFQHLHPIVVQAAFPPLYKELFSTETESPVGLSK
test details: Agonist activity at Gal4-fused DBD RORgammat LBD (unknown origin) expressed in HEK293 cells assessed as coactivator recruitment incubated for overnight in presence of ursolic acid by luciferase reporter gene Assay
Type: cell-based
readout: EC50

Input line: For C[C@H]1CN(S(=O)(=O)c2cccc(C(F)(F)F)c2)c2nc(COc3c(F)cccc3Cl)ccc2O1 , write its EC50.
Output line: < 500 nM

###

measurement target: UniProtKB P51449
test details: Agonist activity at 6xHis tagged human RORgammat LBD (262 to 507 residues) expressed in Escherichia coli BL21 (DE3) assessed as biotinylated SRC1-2 peptide coactivator recruitment by AlphaScreen assay
This section presents compounds with their documented EC50 values.

Use these answered entries as a reference point.
compound | measurement target | EC50
CC(C)CCC[C@@H](C)[C@H]1CC[C@H]2[C@@H]3CC=C4C[C@@H](O)CC[C@]4(C)[C@H]3CC[C@]12C | UniProtKB P51449 | 20 nM
CC(C)CCC[C@@](C)(O)[C@H]1CC[C@H]2[C@@H]3CC=C4C[C@@H](O)CC[C@]4(C)[C@H]3CC[C@@]21C | UniProtKB P51449 | 20 to 40 nM

// moving on: another record for EC50
Input line: Fill: EC50 (UniProtKB P51449) for this compound CC(C)CC[C@@H](O)[C@@H](C)[C@H]1CC[C@H]2[C@@H]3CC=C4C[C@@H](O)CC[C@]4(C)[C@H]3CC[C@]12C [22(R)-HYDROXYCHOLESTEROL]
Output line: 20 to 40 nM
